Here we list compounds with their recorded pIC50 when tested on human 11-β-HSD-2 (Homo sapiens, UniProt P80365).
Sequence (P80365 whole entry): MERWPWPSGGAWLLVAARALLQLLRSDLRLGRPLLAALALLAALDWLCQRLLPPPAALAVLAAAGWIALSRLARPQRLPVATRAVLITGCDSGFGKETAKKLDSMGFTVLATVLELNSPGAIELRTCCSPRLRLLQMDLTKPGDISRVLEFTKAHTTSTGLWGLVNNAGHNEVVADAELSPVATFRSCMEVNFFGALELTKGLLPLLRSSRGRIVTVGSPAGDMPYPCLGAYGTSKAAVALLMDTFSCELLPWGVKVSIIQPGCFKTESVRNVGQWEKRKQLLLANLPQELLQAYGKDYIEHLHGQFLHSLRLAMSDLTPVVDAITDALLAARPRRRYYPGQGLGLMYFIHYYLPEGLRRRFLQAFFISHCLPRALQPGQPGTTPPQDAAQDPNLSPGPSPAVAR
pIC50: −log10 of the molar value.
experimental_readout: pIC50

INSERT INTO results (compound, experimental_readout, value_prefix, endpoint_value) VALUES
  ('CC(C)(Oc1ccc(-n2cccn2)cn1)C(=O)N[C@@H]1[C@@H]2C[C@@H]3C[C@H]1C[C@@](C(N)=O)(C3)C2', 'pIC50', '<', 4.00),
  ('CC(C)(Oc1ccc(Cl)cc1)C(=O)NC1C2CC3CC1CC(/C=C/C(=O)O)(C3)C2 (centres unmarked)', 'pIC50', '<', 4.00),
  ('CC(C)(Oc1ccc(Cl)cc1)C(=O)NC1C2CC3CC1CC(CS(=O)(=O)NCc1ccc(C(=O)O)cc1)(C3)C2 (centres unmarked)', 'pIC50', '=', 4.74),
  ('CC(C)(Oc1ccc(Cl)cc1)C(=O)N[C@@H]1[C@@H]2C[C@@H]3C[C@H]1C[C@@](CC(N)=O)(C3)C2', 'pIC50', '=', 4.68),
  ('CCN(CC)S(=O)(=O)c1cc(Cl)ccc1OC(C)(C)C(=O)NC1C2CC3CC1CC(C(N)=O)(C3)C2 (centres unmarked)', 'pIC50', '=', 4.19),
  ('CC(C)(Oc1ccc(Cl)cc1)C(=O)NC1C2CC3CC1CC(Cc1nn[nH]n1)(C3)C2 (centres unmarked)', 'pIC50', '<', 4.00),
  ('NC(=O)C12CC3CC(C1)C(NC(=O)C1(Oc4ccc(Cl)cc4)CCC1)C(C3)C2 (centres unmarked)', 'pIC50', '=', 4.05),
  ('CC(C)(Oc1cccc(C(F)(F)F)c1)C(=O)NC1C2CC3CC1CC(C(N)=O)(C3)C2 (centres unmarked)', 'pIC50', '=', 4.96);

The origin of these recorded values is patent US20090192198A1.
